meta.source: patent US11083725B2

System: NHBE cells
Experiment: Biolog metabolic array: substrate use by NHBE cells with or without CA09 infection
Assay type: cell-based, human
Settings: Virus: CA09-infected NHBE cells, MOI 1; Biolog PMM2; 4 hr
Hi! Just check whether 590 nm absorbance normalized to zero hour (substrate use), 4 hr is below 0.3. Below gives criterion met, equal or above gives criterion not met.

Please let me know if O=C(CO)[C@@H](O)[C@H](O)[C@@H](O)CO [L-Sorbose] shows 590 nm absorbance normalized to zero hour (substrate use), 4 hr below 0.3. criterion met

Please let me know if OC[C@@H](O)[C@@H](O)[C@H](O)[C@H](O)CO [D-Mannitol] shows 590 nm absorbance normalized to zero hour (substrate use), 4 hr below 0.3. criterion not met

Please let me know if Cc1cn([C@H]2C[C@H](O)[C@@H](CO)O2)c(=O)[nH]c1=O [Thymidine] shows 590 nm absorbance normalized to zero hour (substrate use), 4 hr below 0.3. criterion not met

Please let me know if CC(=O)C(=O)O [Pyruvic Acid] shows 590 nm absorbance normalized to zero hour (substrate use), 4 hr below 0.3. criterion not met

Please let me know if C[C@@H]1OC(O)[C@@H](O)[C@H](O)[C@@H]1O (stereo partly drawn) [L-Fucose] shows 590 nm absorbance normalized to zero hour (substrate use), 4 hr below 0.3. criterion not met

* * *

Provide the reported 590 nm absorbance normalized to zero hour (substrate use), 2 hr of each item.
Test system: NHBE cells
Test: Biolog metabolic array: substrate use by NHBE cells with or without CA09 infection
Assay type: cell-based, human
Details: Virus (CA09-infected, MOI 1) NHBE cells, 2 hr
Enter a number only.

What measured 590 nm absorbance normalized to zero hour (substrate use), 2 hr is associated with CO[C@@H]1O[C@H](CO)[C@H](O)[C@H](O)[C@H]1O [b-Methyl-D-Galactoside] on NHBE cells? 0.95

What measured 590 nm absorbance normalized to zero hour (substrate use), 2 hr is associated with CCC(=O)O on NHBE cells? 0.70

What measured 590 nm absorbance normalized to zero hour (substrate use), 2 hr is associated with O=P(O)(O)O[C@H]1O[C@H](CO)[C@@H](O)[C@H](O)[C@H]1O [D-Glucose-1-Phosphate] on NHBE cells? 2.39

What measured 590 nm absorbance normalized to zero hour (substrate use), 2 hr is associated with CC(=O)N[C@H]1[C@H]([C@H](O)[C@H](O)CO)OC(O)(C(=O)O)C[C@@H]1O (some centres unmarked) on NHBE cells? 3.35

What measured 590 nm absorbance normalized to zero hour (substrate use), 2 hr is associated with OC[C@@H](O)[C@@H](O[C@@H]1O[C@H](CO)[C@H](O)[C@H](O)[C@H]1O)[C@H](O)[C@@H](O)CO on NHBE cells? 2.20

What measured 590 nm absorbance normalized to zero hour (substrate use), 2 hr is associated with CC(O)C(=O)O (centres unmarked) on NHBE cells? 1.66

What measured 590 nm absorbance normalized to zero hour (substrate use), 2 hr is associated with CO[C@H]1O[C@H](CO)[C@@H](O)[C@H](O)[C@H]1O [a-Methyl-D-Glucoside] on NHBE cells? 1.66

What measured 590 nm absorbance normalized to zero hour (substrate use), 2 hr is associated with N[C@@H](C(=O)O)[C@@H](O)[C@H](O)[C@H](O)CO on NHBE cells? 2.21
